tested on: Enterobacter agglomerans AJ13601 strain; experiment: Growth inhibition by organic acid at acidic pH (main culture in jar fermenter); type: cell-based; conditions: organic acid 0.5 g/L in main culture medium, pH 4.5, 34° C.
Reported metric: Growth inhibition

The following molecules have reported results that may help.
CC(=O)O [Acetic acid] ... Observed
CCC(=O)O [Propionic acid] ... Observed
CC(O)C(=O)O (stereo not shown) [Lactic acid] ... Not observed
O=CO [Formic acid] ... Observed

Give recorded Growth inhibition with Enterobacter agglomerans AJ13601 strain for the following molecule: O=C(O)CCC(=O)O [Succinic acid]
Not observed
